FYI, the data here is from patent US20230096766A1.

experiment: in vitro; conditions: human, Caco-2, Caco-2
*1 amine or outer side, *2 acyl side, *3 side chain or, on linkers, in order; H or OH if unused. Where a SMILES comes first, the peptide text is derived from it. Bridges are numbered along the chain shown (N, C = ends). [ ]: non-standard residue; d: D form. The star is where a group is joined. ξ: configuration not given here. NMeAbu(3,3-F2-piperidino) = CN[C@@H](CCN1CCCC(F)(F)C1)C(=O)O; Glu(NHSO2Me) = CS(=O)(=O)NC(=O)CC[C@H](N)C(=O)O; NMePhe(3-Cl) = CN[C@@H](Cc1cccc(Cl)c1)C(=O)O; Ethyl(2-morpholino) = C1CN(CC*)CCO1; NMeF = CN[C@@H](Cc1ccccc1)C(=O)O; NMeGABA = CN(CCCC(=O)[*:2])[*:1]; NMeL = CN[C@@H](CC(C)C)C(=O)O; NMeV = CN[C@H](C(=O)O)C(C)C; NMeAbu = CC[C@H](NC)C(=O)O; NMeA = CN[C@@H](C)C(=O)O; Piperidide = C1CCN(*)CC1; Me2NCH2CH2 = CN(C)CC*; NBuGly = CCCCNCC(=O)O; Isopentyl = CC(C)CC*; NPrGly = CCCNCC(=O)O; ξS = NC(CO)C(=O)O; Sar = CNCC(=O)O; tBu = CC(C)(C)*
Listed here: items and their measured Papp.

# molecule, Papp, ×10⁻⁶ cm/s
records = [
    ("CCCCN1CC(=O)N(C)[C@@H](C(C)C)C(=O)N[C@H](C(=O)N2CCCCC2)CC(=O)N(C)[C@@H](C)C(=O)N[C@@H](COCCN(C)C)C(=O)N(C)[C@@H](CC(C)C)C(=O)N(C)[C@@H](Cc2ccccc2)C(=O)N[C@@H](CC(C)C)C(=O)N(C)[C@@H](Cc2ccccc2)C(=O)N(C)[C@@H](CC(C)C)C(=O)N[C@@H]([C@@H](C)O)C1=O [pd56] ([NMeA]S(Me2NCH2CH2)[NMeL][NMeF]L[NMeF][NMeL]T[NBuGly][NMeV]D-Piperidide; lactam N-11)", 0.12),
    ("CCCCN1CC(=O)N(C)[C@@H](Cc2ccccc2)C(=O)N(C)[C@@H](CC(C)C)C(=O)N[C@@H](C(C)C)C(=O)N(C)[C@@H](CC(C)C)C(=O)N[C@H](C(=O)N2CCCCC2)CC(=O)N(C)CC(=O)N(C)[C@@H](CC(C)C)C(=O)NC(COCCN2CCOCC2)C(=O)N(C)[C@@H](CC(C)C)C(=O)N[C@@H]([C@@H](C)O)C1=O (stereo partly drawn) [pd484] ([Sar][NMeL][ξS](Ethyl(2-morpholino))[NMeL]T[NBuGly][NMeF][NMeL]V[NMeL]D-Piperidide; lactam N-11)", 1.8),
    ("CCCCN1CC(=O)N(C)[C@@H](Cc2cccc(Cl)c2)C(=O)N[C@@H](CCC(=O)NS(C)(=O)=O)C(=O)N(C)[C@@H](CC(C)C)C(=O)N[C@@H]([C@@H](C)O)C(=O)N(CCCC)CC(=O)N(C)[C@@H](Cc2ccccc2)C(=O)N(C)[C@@H](CC(C)C)C(=O)N[C@@H](CC(C)C)C(=O)N(C)[C@@H](CC(C)C)C(=O)N[C@H](C(=O)N2CCCCC2)CC1=O [pd66] ([NBuGly][NMePhe(3-Cl)][Glu(NHSO2Me)][NMeL]T[NBuGly][NMeF][NMeL]L[NMeL]D-Piperidide; lactam N-11)", 0.09),
    ("CCCCN1CC(=O)N(C)[C@@H](CC(C)C)C(=O)N[C@@H](COCCN(C)C)C(=O)N(C)[C@@H](Cc2ccccc2)C(=O)N(C)[C@@H](C(C)C)C(=O)N[C@H](C(=O)N2CCCCC2)CC(=O)N[C@H](CC(C)C)C(=O)N(C)[C@@H](Cc2ccccc2)C(=O)N[C@@H](CC(C)C)C(=O)N(C)[C@@H](CC(C)C)C(=O)N[C@@H]([C@@H](C)O)C1=O [pd51] ([dL][NMeF]L[NMeL]T[NBuGly][NMeL]S(Me2NCH2CH2)[NMeF][NMeV]D-Piperidide; lactam N-11)", 0.07),
    ("CCCN1CC(=O)N(C)[C@@H](CC(C)C)C(=O)N[C@@H](COC(C)(C)C)C(=O)N(C)[C@@H](Cc2ccccc2)C(=O)N(C)[C@@H](C(C)C)C(=O)N[C@H](C(=O)N2CCCCC2)CC(=O)N[C@H](C(C)C)C(=O)N(C)[C@@H](Cc2ccccc2)C(=O)N[C@@H](COCCN(C)C)C(=O)N(C)[C@@H](CC(C)C)C(=O)N[C@@H]([C@@H](C)O)C1=O [pd50] ([dV][NMeF]S(Me2NCH2CH2)[NMeL]T[NPrGly][NMeL]S(tBu)[NMeF][NMeV]D-Piperidide; lactam N-11)", 0.15),
    ("CCCCN1CC(=O)N(C)[C@@H](Cc2ccccc2)C(=O)N[C@@H](COCCN(C)C)C(=O)N(C)[C@@H](CC(C)C)C(=O)N[C@@H]([C@@H](C)O)C(=O)N(C)CC(=O)N(C)[C@@H](Cc2ccccc2)C(=O)N(C)[C@@H](CC)C(=O)N[C@@H](COCCC(C)C)C(=O)N(C)[C@@H](CC(C)C)C(=O)N[C@H](C(=O)N2CCCCC2)CC1=O [pd58] ([NBuGly][NMeF]S(Me2NCH2CH2)[NMeL]T[Sar][NMeF][NMeAbu]S(Isopentyl)[NMeL]D-Piperidide; lactam N-11)", 0.021),
    ("CCCCN1CC(=O)N(C)[C@@H](CC(C)C)C(=O)N[C@@H](COC(C)(C)C)C(=O)N(C)[C@@H](Cc2ccccc2)C(=O)N(C)[C@@H](C(C)C)C(=O)N[C@H](C(=O)N2CCCCC2)CC(=O)N[C@H](C)C(=O)N(C)[C@@H](Cc2ccccc2)C(=O)N[C@@H](CC(C)C)C(=O)N(C)[C@@H](CCN2CCCC(F)(F)C2)C(=O)N[C@@H]([C@@H](C)O)C1=O [pd386] ([dA][NMeF]L[NMeAbu(3,3-F2-piperidino)]T[NBuGly][NMeL]S(tBu)[NMeF][NMeV]D-Piperidide; lactam N-11)", 2.3),
    ("CC(C)C[C@@H]1NC(=O)[C@H](Cc2ccccc2)N(C)C(=O)[C@H](Cc2ccccc2)N(C)C(=O)[C@H](CC(C)C)NC(=O)[C@H](CC(C)C)N(C)C(=O)CCCN(C)C(=O)C[C@@H](C(=O)N2CCCCC2)NC(=O)[C@H](C)N(C)C(=O)[C@H](CCN2CCCC(F)(F)C2)N(C)C(=O)[C@H]([C@@H](C)O)NC(=O)[C@H](CC(C)C)N(C)C1=O [pd390] ([NMeGABA][NMeL]L[NMeF][NMeF]L[NMeL]T[NMeAbu(3,3-F2-piperidino)][NMeA]D-Piperidide; lactam N-11)", 2),
    ("CCCN1CC(=O)N(C)[C@@H](C(C)C)C(=O)N[C@H](C(=O)N2CCCCC2)CC(=O)N(C)[C@@H](C)C(=O)N[C@@H](CC(C)C)C(=O)N(C)[C@@H](CC(C)C)C(=O)N(C)[C@@H](Cc2ccccc2)C(=O)NC(COCCN(C)C)C(=O)N(C)[C@@H](Cc2ccccc2)C(=O)N(C)[C@@H](CC(C)C)C(=O)N[C@@H]([C@@H](C)O)C1=O (stereo partly drawn) [pd57] ([NMeA]L[NMeL][NMeF][ξS](Me2NCH2CH2)[NMeF][NMeL]T[NPrGly][NMeV]D-Piperidide; lactam N-11)", 0.12),
]
